- TARGET OR SYSTEM: T1, GFP-9S library array, motif 4 ND N98W;D124K (synthetic construct, N98W;D124K)
- T1 chain: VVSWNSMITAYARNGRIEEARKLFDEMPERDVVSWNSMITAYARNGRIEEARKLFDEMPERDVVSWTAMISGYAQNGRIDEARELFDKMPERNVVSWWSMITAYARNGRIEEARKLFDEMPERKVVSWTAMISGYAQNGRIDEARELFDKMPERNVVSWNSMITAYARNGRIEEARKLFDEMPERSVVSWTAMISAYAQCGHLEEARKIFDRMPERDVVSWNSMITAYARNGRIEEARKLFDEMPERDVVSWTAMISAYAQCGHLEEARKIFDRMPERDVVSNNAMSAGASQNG
- PROTOCOL DETAILS: high-throughput RNA pulldown from lysate on Ni-NTA beads; HRP: 50 mM Tris pH 8, 150 mM NaCl, 1 mM beta-mercaptoethanol, 50 ug/ml BSA, 3 ug/ml yeast RNA, 0.5% heparin; ITC and FP: Tris pH 8, 200 mM KCl, 5% glycerol; MST: 50 mM Tris pH 8, 200 mM NaCl, 1 mM DTT, BSA, heparin, 0.05% Tween 20
- PROTOCOL CONDITIONS: tags: N-terminal His-eGFP; label: 5' IRDye 800CW
pKd: −log10 of the molar value.

{"BINDER": "AUUAAACGUGA (ssRNA) [IR-rpoA-A]", "pKd": 6.75}
{"BINDER": "AUUAUACGUGA (ssRNA) [IR-rpoA-U]", "pKd": 6.81}
